Reference for the values: patent US8623856B2

Target: human S1P1 receptor (Homo sapiens)
Construct: membranes were used
Sequence (P21453 whole entry): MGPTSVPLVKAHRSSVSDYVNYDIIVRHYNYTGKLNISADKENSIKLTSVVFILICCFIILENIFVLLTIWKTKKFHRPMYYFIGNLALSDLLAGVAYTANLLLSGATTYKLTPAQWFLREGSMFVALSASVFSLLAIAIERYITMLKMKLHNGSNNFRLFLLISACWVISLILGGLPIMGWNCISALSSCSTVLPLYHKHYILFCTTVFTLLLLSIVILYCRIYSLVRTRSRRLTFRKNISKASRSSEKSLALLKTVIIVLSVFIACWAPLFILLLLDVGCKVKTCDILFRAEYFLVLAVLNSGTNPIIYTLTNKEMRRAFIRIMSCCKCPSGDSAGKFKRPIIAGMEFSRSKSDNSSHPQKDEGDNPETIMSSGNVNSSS
Assay: GTP γ35S binding assay for S1P1 activity
Details: membranes of cells stably expressing the S1P1 receptor, agonist activity potency
pEC50: −log10 of the molar value.
metric: pEC50

Cc1ccc(CC(CCCOc2ccc(CN3CC(C(=O)O)C3)cc2)c2cc(F)cc(F)c2)cc1C (stereo not shown)	8.85

P. Cc1ccc(CC(CCCOc2ccc(CN3CC(C(=O)O)C3)cc2)c2cccc(F)c2F)cc1C (stereo not shown)
Q. Cc1ccc(CC(CCOc2ccc(CN3CC(C(=O)O)C3)cc2)c2cccc(Cl)c2)cc1C (stereo not shown)
R. Cc1ccc(CC(CCCOc2ccc(CN3CC(C(=O)O)C3)cc2)c2ccsc2)cc1C (stereo not shown)
Rank the items in ascending order with respect to pEC50. Answer by listing the labels in the requested order.
Q, R, P
